assay: Log D determination (n-octanol / sodium phosphate buffer pH 7.4); type: physicochemical; conditions: n-octanol / sodium phosphate buffer 0.15 M pH 7.4, measured four times
PROPERTY_LABEL: logD
Just the number, please, no unit after it.

Q: Which logD is reported for this compound? CCCN(CCC)C(=O)Cc1c(-c2ccc(OCC[18F])cc2)nc2c(Cl)cc(Cl)cn12 [[^18F]CB251]
Result: 3

---

biological target: TSPO (Rattus norvegicus)
Sequence (P16257 whole entry): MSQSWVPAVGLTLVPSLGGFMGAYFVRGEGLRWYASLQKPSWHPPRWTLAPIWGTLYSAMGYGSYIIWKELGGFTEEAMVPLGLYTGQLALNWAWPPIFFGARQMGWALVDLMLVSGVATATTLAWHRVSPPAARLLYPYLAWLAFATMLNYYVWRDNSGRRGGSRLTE
PROPERTY_LABEL: Ki (nM)
Numeric answer only, unit nM assumed.

Q: So what Ki did CCCN(CCC)C(=O)Cc1c(-c2ccc(OCCF)cc2)nc2c(Cl)cc(Cl)cn12 get with TSPO (Rattus norvegicus)?
Result: 0.27
